B1: Protein S100-G, P02633 (parent)
chain: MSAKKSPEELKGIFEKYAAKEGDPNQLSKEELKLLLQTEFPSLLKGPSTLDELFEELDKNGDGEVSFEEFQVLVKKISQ

Variants of: B1
Conditions: Bos taurus; pH 7; 25 °C; Urea; CD; Potassium phosphate 10 mM; structure 1IGV; whole UniProt chain shown
Rule: Met for unfolding free energy not less than 3 kcal/mol, Not met for anything less.

Example results:
[
  {
    "VARIANT IDENTIFIER": "L27G",
    "ASSIGNED CLASS": "Not met"
  },
  {
    "VARIANT IDENTIFIER": "V65G",
    "ASSIGNED CLASS": "Not met"
  },
  {
    "VARIANT IDENTIFIER": "V65A",
    "ASSIGNED CLASS": "Not met"
  },
  {
    "VARIANT IDENTIFIER": "V74L",
    "ASSIGNED CLASS": "Met"
  },
  {
    "VARIANT IDENTIFIER": "F14A",
    "ASSIGNED CLASS": "Not met"
  },
  {
    "VARIANT IDENTIFIER": "L32A",
    "ASSIGNED CLASS": "Met"
  },
  {
    "VARIANT IDENTIFIER": "F70A",
    "ASSIGNED CLASS": "Not met"
  },
  {
    "VARIANT IDENTIFIER": "L27A",
    "ASSIGNED CLASS": "Not met"
  },
  {
    "VARIANT IDENTIFIER": "F70W",
    "ASSIGNED CLASS": "Met"
  },
  {
    "VARIANT IDENTIFIER": "L10V",
    "ASSIGNED CLASS": "Met"
  }
]

Kindly review the next variant as well.
In: Given "I77V" , state whether its unfolding free energy is at least 3 kcal/mol.
Out: Met
